- System: E. faecalis ATCC29212
- test method notes: MIC, microdilution broth method (NCCLS)
- Type: cell-based
- run parameters: C: E. faecalis ATCC29212, 35° C., 16-20 hours
Reported MIC values for the following compounds.
experimental readout: MIC

>>> result("CC[C@H]1OC(=O)[C@H](C)C(=O)[C@H](C)[C@@H](O[C@@H]2O[C@H](C)C[C@H](N(C)C)[C@H]2O)[C@](C)(OC(=O)NCc2ccc(-n3ccnc3)cc2)C[C@@H](C)C(=O)[C@H](C)[C@H]2NC(=O)O[C@@]21C")
"0.12 µg/mL"
>>> result("CC[C@H]1OC(=O)[C@H](C)C(=O)[C@H](C)[C@@H](O[C@@H]2O[C@H](C)C[C@H](N(C)C)[C@H]2O)[C@](C)(OC(=O)NC/C=C/C=C/c2ccc(-n3cccn3)cc2)C[C@@H](C)C(=O)[C@H](C)[C@H]2NC(=O)O[C@@]21C")
"0.5 µg/mL"

* * *

- Test system: E. coli OC2605
- test method notes: MIC, microdilution broth method (NCCLS)
- Format: cell-based
- run parameters: A: E. coli OC2605, 35° C., 16-20 hours
experimental readout: MIC (µg/mL)

>>> recorded_number("CC[C@H]1OC(=O)[C@H](C)C(=O)[C@H](C)[C@@H](O[C@@H]2O[C@H](C)C[C@H](N(C)C)[C@H]2O)[C@](C)(OC(=O)NC/C=C/c2ccc(-n3cccn3)cc2)C[C@@H](C)C(=O)[C@H](C)[C@H]2NC(=O)O[C@@]21C")
16
>>> recorded_number("CCC1OC(=O)C(C)(F)C(=O)C(C)C(OC2OC(C)CC(N(C)C)C2O)C(C)(OC(=O)NCC=Cc2ccnc(Br)c2)CC(C)C(=NO)C(C)C2NC(=O)OC12C (centres unmarked)")
8
>>> recorded_number("CC[C@H]1OC(=O)[C@H](C)C(=O)[C@H](C)[C@@H](O[C@@H]2O[C@H](C)C[C@H](N(C)C)[C@H]2O)[C@](C)(OC(=O)NCCCc2ccnc3ccccc23)C[C@@H](C)C(=O)[C@H](C)[C@H]2NC(=O)O[C@@]21C")
8
>>> recorded_number("CC[C@H]1OC(=O)[C@H](C)C(=O)[C@H](C)[C@@H](O[C@@H]2O[C@H](C)C[C@H](N(C)C)[C@H]2O)[C@](C)(OC(=O)NCCCc2cccnc2)C[C@@H](C)C(=O)[C@H](C)[C@H]2NC(=O)O[C@@]21C")
16

* * *

- Tested on: H. influenzae ATCC49247
- test method notes: MIC, microdilution broth method (NCCLS)
- Type: cell-based
- run parameters: E: H. influenzae ATCC49247, 35° C., 16-20 hours
experimental readout: MIC

>>> result("CC[C@H]1OC(=O)[C@H](C)C(=O)[C@H](C)[C@@H](O[C@@H]2O[C@H](C)C[C@H](N(C)C)[C@H]2O)[C@](C)(OC(=O)NC/C=C/c2cn(-c3ncccn3)cn2)C[C@@H](C)C(=O)[C@H](C)[C@H]2NC(=O)O[C@@]21C")
"2 µg/mL"
>>> result("CC[C@H]1OC(=O)[C@H](C)C(=O)[C@H](C)[C@@H](O[C@@H]2O[C@H](C)C[C@H](N(C)C)[C@H]2O)[C@](C)(OC(=O)NCCN2C(=O)c3ccccc3C2=O)C[C@@H](C)C(=O)[C@H](C)[C@H]2NC(=O)O[C@@]21C")
"16 µg/mL"
>>> result("CC[C@H]1OC(=O)[C@H](C)C(=O)[C@H](C)[C@@H](O[C@@H]2O[C@H](C)C[C@H](N(C)C)[C@H]2O)[C@](C)(OC(=O)NCc2ccc(-n3cccn3)cc2)C[C@@H](C)C(=O)[C@H](C)[C@H]2NC(=O)O[C@@]21C")
"4 µg/mL"
>>> result("CC[C@H]1OC(=O)[C@H](C)C(=O)[C@H](C)[C@@H](O[C@@H]2O[C@H](C)C[C@H](N(C)C)[C@H]2O)[C@](C)(OC(=O)NC/C=C/c2ccc(-c3ccc([N+](=O)[O-])cn3)cc2)C[C@@H](C)C(=O)[C@H](C)[C@H]2NC(=O)O[C@@]21C")
"4 µg/mL"
>>> result("CC[C@H]1OC(=O)[C@H](C)C(=O)[C@H](C)[C@@H](O[C@@H]2O[C@H](C)C[C@H](N(C)C)[C@H]2O)[C@](C)(OC(=O)NCc2cn(-c3ncccn3)cn2)C[C@@H](C)C(=O)[C@H](C)[C@H]2NC(=O)O[C@@]21C")
"1 µg/mL"
>>> result("CC[C@H]1OC(=O)[C@H](C)C(=O)[C@H](C)[C@@H](O[C@@H]2O[C@H](C)C[C@H](N(C)C)[C@H]2O)[C@](C)(OC(=O)NCCNCc2cnc3ccccc3c2)C[C@@H](C)C(=O)[C@H](C)[C@H]2NC(=O)O[C@@]21C")
"4 µg/mL"
>>> result("CCC1OC(=O)C(C)(F)C(=O)C(C)C(OC2OC(C)CC(N(C)C)C2O)C(C)(OC(=O)NCC=Cc2ccc(-c3ccncn3)cc2)CC(C)C(=O)C(C)C2NC(=O)OC12C (centres unmarked)")
"2 µg/mL"
>>> result("CCC1OC(=O)C(C)(F)C(=O)C(C)C(OC2OC(C)CC(N(C)C)C2O)C(C)(OC(=O)NCCOCc2ccc(-c3ncccn3)cc2)CC(C)C(=O)C(C)C2NC(=O)OC12C (centres unmarked)")
"4 µg/mL"
